Sourced from ChEMBL document CHEMBL1156953

Catalogue of pKa readings, one per entry.
Method: Dissociation constant, pKa of the compound
Format: physicochemical
Test Readout: pKa

Structure Smiles	Recorded Value
Nc1cccc(Cn2c(-c3ccc(Oc4ccccc4)cc3)ccc2-c2ccccc2Cl)n1	6.86
Nc1cccc(Cn2c(-c3ccc(Oc4ccncc4)cc3)ccc2-c2ccccc2Cl)n1	6.86
CCCCCOc1ccc(-c2ccc(-c3ccccc3Cl)n2Cc2ccc(NCCCO)c(N)n2)cc1	6.86
CCCNC(=O)c1ccc(-c2ccc(-c3ccccc3)n2Cc2cccc(N)n2)cc1	6.86
COc1ccc(-c2ccc(-c3ccccc3Cl)n2Cc2cccc(N)n2)cc1	6.86
CCCCCOc1ccc(-c2ccc(-c3ccccc3Cl)n2Cc2cccc(N)n2)cc1	6.86
Nc1cccc(Cn2c(-c3ccc(Oc4cccnn4)cc3)ccc2-c2ccccc2Cl)n1	6.86
CC(C)NC(=O)c1ccc(-c2ccc(-c3ccccc3)n2Cc2cccc(N)n2)cc1	6.86
Nc1cccc(Cn2c(-c3ccccc3)ccc2-c2ccc(C(=O)NC3CC3)cc2)n1	6.86
CCCCCOc1ccc(-c2ccc(-c3ccccc3Cl)n2Cc2ccc(NCCO)c(N)n2)cc1	6.86
Nc1cccc(Cn2c(-c3ccccc3)ccc2-c2ccccc2)n1	6.86
Nc1cccc(Cn2c(-c3ccc(Oc4cncnc4)cc3)ccc2-c2ccccc2Cl)n1	6.86
Nc1nc(Cn2c(-c3ccc(Oc4cncnc4)cc3)ccc2-c2ccccc2Cl)ccc1NCCO	6.86
CCCCCCOc1ccc(-c2ccc(-c3ccccc3Cl)n2Cc2cccc(N)n2)cc1	6.86
CCCCCOc1ccc(-c2ccc(-c3ccccc3Cl)n2Cc2ccc(OCCO)c(N)n2)cc1	6.86
Nc1nc(Cn2c(-c3ccc(Oc4cncnc4)cc3)ccc2-c2ccccc2Cl)ccc1OCCO	6.86
CCCCCOc1ccc(-c2ccc(-c3ccccc3Cl)n2Cc2ccc(OCCCO)c(N)n2)cc1	6.86
CCCOc1ccc(-c2ccc(-c3ccccc3Cl)n2Cc2cccc(N)n2)cc1	6.86
Nc1cccc(Cn2c(-c3ccc(Nc4cncnc4)cc3)ccc2-c2ccccc2Cl)n1	6.86
CCNC(=O)c1ccc(-c2ccc(-c3ccccc3)n2Cc2cccc(N)n2)cc1	6.86
Nc1cccc(Cn2c(-c3ccc(Oc4cnccn4)cc3)ccc2-c2ccccc2Cl)n1	6.86
CCCCNC(=O)c1ccc(-c2ccc(-c3ccccc3)n2Cc2cccc(N)n2)cc1	6.86
Nc1cccc(Cn2c(-c3ccc(Oc4cccnc4)cc3)ccc2-c2ccccc2Cl)n1	6.86
C=CCNC(=O)c1ccc(-c2ccc(-c3ccccc3)n2Cc2cccc(N)n2)cc1	6.86
CCCCOc1ccc(-c2ccc(-c3ccccc3Cl)n2Cc2cccc(N)n2)cc1	6.86
N#CCCCOc1ccc(-c2ccc(-c3ccccc3Cl)n2Cc2cccc(N)n2)cc1	6.86
Nc1cccc(Cn2c(-c3ccc(Oc4cccs4)cc3)ccc2-c2ccccc2Cl)n1	6.86
Nc1cccc(Cn2c(-c3ccc(Oc4ccccn4)cc3)ccc2-c2ccccc2Cl)n1	6.86
Nc1cccc(Cn2c(-c3ccccc3)ccc2-c2ccc(C(=O)NC3CCC3)cc2)n1	6.86
